# Assay Procedure: in vitro
# Cond: cat
Assay Readout: selectivity ratio

Report selectivity ratio for O=C(Cc1csc2nc(-c3ccc(Br)cc3)cn12)NN1C(=O)CSC12CCC(c1ccc(O)cc1)CC2 (stereo not shown) please.
> 20

====

# System: human embryonic lung (HEL) fibroblast cells
# Cond: minimum cytotoxic concentration, microscopic inspection of cell morphology
Here, each record is paired with measured Cytotoxicity MCC data.

CC1SC2(CCC(c3ccc(O)cc3)CC2)N(NC(=O)Cc2csc3nc(-c4ccc(Br)cc4)cn23)C1=O (centres unmarked)    ≥20 µg/mL
O=C(Cc1csc2nc(-c3ccc(Br)cc3)cn12)NN1C(=O)CSC12CCCC2    100 µg/mL
CC1SC2(CCCCC2)N(NC(=O)Cc2csc3nc(-c4ccc(Br)cc4)cn23)C1=O (centres unmarked)    20 µg/mL

Please look at the following molecule next.
Report Cytotoxicity MCC for O=C(Cc1csc2nc(-c3ccc(Br)cc3)cn12)NN=C1CCC(c2ccc(O)cc2)CC1 (centres unmarked) please.
>100 µg/mL
